EXPERIMENTAL SYSTEM: T1, alpha-s1 casein from Bos taurus
T1 chain: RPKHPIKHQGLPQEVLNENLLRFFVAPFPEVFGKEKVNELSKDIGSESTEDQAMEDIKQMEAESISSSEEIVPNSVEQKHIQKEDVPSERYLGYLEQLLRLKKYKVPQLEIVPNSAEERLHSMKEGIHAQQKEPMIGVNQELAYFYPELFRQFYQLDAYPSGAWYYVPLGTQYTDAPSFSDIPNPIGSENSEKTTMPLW
Measured αs1-I CN, 24 hours, 11° C. values are reported for all entries that follow.
Phrase the answer as number then unit, nothing more needed.

1. camel chymosin variant #159 (L295I) (protein) GKVAREPLTSYLDSQYFGKIYIGTPPQEFTVVFDTGSSDLWVPSIYCKSNVCKNHHRFDPRKSSTFRNLGKPLSIHYGTGSMEGFLGYDTVTVSNIVDPNQTVGLSTEQPGEVFTYSEFDGILGLAYPSLASEYSVPVFDNMMDRHLVARDLFSVYMDRNGQGSMLTLGAIDPSYYTGSLHWVPVTLQQYWQFTVDSVTINGVAVACVGGCQAILDTGTSVLFGPSSDILKIQMAIGATENRYGEFDVNCGNLRSMPTVVFEINGRDYPLSPSAYTSKDQGFCTSGFQGDNNSEIWILGDVFIREYYSVFDRANNRVGLAKAI | 1.97e+07 Volume

We next turn to a different protein, shown below.
### Prompt Could you share which αs1-I CN, 24 hours, 11° C. value was measured for camel chymosin variant #154 (D290M) (protein) GKVAREPLTSYLDSQYFGKIYIGTPPQEFTVVFDTGSSDLWVPSIYCKSNVCKNHHRFDPRKSSTFRNLGKPLSIHYGTGSMEGFLGYDTVTVSNIVDPNQTVGLSTEQPGEVFTYSEFDGILGLAYPSLASEYSVPVFDNMMDRHLVARDLFSVYMDRNGQGSMLTLGAIDPSYYTGSLHWVPVTLQQYWQFTVDSVTINGVAVACVGGCQAILDTGTSVLFGPSSDILKIQMAIGATENRYGEFDVNCGNLRSMPTVVFEINGRDYPLSPSAYTSKDQGFCTSGFQGMNNSELWILGDVFIREYYSVFDRANNRVGLAKAI ?
### Response 3.77e+07 Volume
